test-description: Pharmacokinetics in beagle dogs
Format: in vivo
condition-notes: male, beagle, dog, plasma, iv, 1 mg/kg, intravenous injection 1 mg/kg, read-out: Plasma clearance rate
test-readout: clearance

Ask: // returns reported clearance for input COCCNS(=O)(=O)Nc1ncnc(OCCOc2ncc(Br)cn2)c1-c1ccc2c(c1)OCO2 [WX013]
Reply: < 5 mL/min/kg

---

tgt: human ETA receptor (Homo sapiens)
Construct: endogenously expressed human ETA receptors in SK-N-MC cells; host or cells: SK-N-MC cells
test-description: In vitro antagonistic effect against human ETA receptor, Ca2+ signal in SK-N-MC cells
Assay type: cell-based
condition-notes: ratio of ETB IC50 to ETA IC50
Protocol: Experimental Embodiment 1: In Vitro Test of Antagonistic Effect Against Human ETA Receptor Antagonistic activity of the compounds against endogenously expressed human ETA receptors in SK-N-MC cells was evaluated by measuring the effect of compounds on the changes in cytoplasmic Ca^2+ ion signal induced by human ETA receptor agonists using fluorescence detection methods. […] 5. […] The data was analyzed using Prism to generate a concentration-response curve, and IC50 values of the compounds were calculated.
The entries below are paired with their reported ETA/ETB selectivity.

Some molecules with recorded ETA/ETB selectivity:
O=S(=O)(Nc1ncnc(OCCOc2ncc(Br)cn2)c1-c1ccc2c(c1)OCC2)N1CC2(COC2)C1 [WX032] = >10000
O=S(=O)(Nc1ncnc(OCCOc2ncc(Br)cn2)c1-c1ccc2c(c1)OCC2)N1CCC2(CC1)CC2 [WX028] = >50000
O=S(=O)(Nc1ncnc(OCCOc2ncc(Br)cn2)c1-c1ccc2c(c1)OCC2)N1C[C@H]2C[C@H]2C1 [WX031] = >90900

Ask: Find the recorded ETA/ETB selectivity belonging to O=S(=O)(NCC1CCOCC1)Nc1ncnc(OCCOc2ncc(Br)cn2)c1-c1ccc2c(c1)OCO2 [WX019] and report it.
Reply: >68100

Ask: // ETA/ETB selectivity lookup, key: CCCOCCNS(=O)(=O)Nc1ncnc(OCCOc2ncc(Br)cn2)c1-c1ccc2scnc2c1 [WX006]
Reply: >230700

---

tgt: human ETA receptor (Homo sapiens)
Construct: endogenously expressed human ETA receptors in SK-N-MC cells; host or cells: SK-N-MC cells
test-description: In vitro antagonistic effect against human ETA receptor, Ca2+ signal in SK-N-MC cells
Type: cell-based
condition-notes: ratio of ETB IC50 to ETA IC50
test-readout: ETA/ETB selectivity
The answer should be a number; do not append a unit.

Illustrative cases are given below, each with its answer.
O=S(=O)(NCC(F)(F)F)Nc1ncnc(OCCOc2ncc(Br)cn2)c1-c1ccc2c(c1)OCO2 [WX010] = 40600
CCNS(=O)(=O)Nc1ncnc(OCCOc2ncc(Br)cn2)c1-c1ccc2c(c1)OCO2 [WX009] = 30800
O=S(=O)(NCC1CC1)Nc1ncnc(OCCOc2ncc(Br)cn2)c1-c1ccc2c(c1)OCO2 [WX014] = 26900
O=S(=O)(NCC(F)(F)F)Nc1ncnc(OCCOc2ncc(Br)cn2)c1-c1ccc2scnc2c1 [WX003] = 27300
COCCCNS(=O)(=O)Nc1ncnc(OCCOc2ncc(Br)cn2)c1-c1ccc2c(c1)OCO2 [WX017] = 35500

Ask: Query: ETA/ETB selectivity; subject: COCCCNS(=O)(=O)Nc1ncnc(OCCOc2ncc(Br)cn2)c1-c1ccc2scnc2c1 [WX007]
Reply: 16600

Ask: Bench note: what ETA/ETB selectivity did CCOCCCNS(=O)(=O)Nc1ncnc(OCCOc2ncc(Br)cn2)c1-c1ccc2c(c1)OCO2 [WX018] show?
Reply: 12600

Ask: Tell me the measured ETA/ETB selectivity of O=S(=O)(NCC1CC1)Nc1ncnc(OCCOc2ncc(Br)cn2)c1-c1ccc2scnc2c1 [WX005] , please.
Reply: 78500

---

pIC50 for assorted molecules
tgt: human ETB receptor (Homo sapiens, UniProt P24530)
Sequence (P24530 27-442): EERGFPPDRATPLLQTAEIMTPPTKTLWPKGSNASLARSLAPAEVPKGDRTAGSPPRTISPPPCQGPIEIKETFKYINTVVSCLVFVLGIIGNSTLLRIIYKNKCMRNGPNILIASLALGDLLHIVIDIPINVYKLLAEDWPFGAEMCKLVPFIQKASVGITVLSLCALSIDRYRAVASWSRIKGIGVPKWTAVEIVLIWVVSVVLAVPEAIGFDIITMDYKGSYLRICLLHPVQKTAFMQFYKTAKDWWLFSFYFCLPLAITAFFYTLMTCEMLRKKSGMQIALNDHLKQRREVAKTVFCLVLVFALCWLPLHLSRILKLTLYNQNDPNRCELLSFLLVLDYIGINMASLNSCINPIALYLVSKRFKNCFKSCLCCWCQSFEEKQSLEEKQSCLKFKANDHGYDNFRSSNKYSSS
test-description: In vitro antagonistic effect against human ETB receptor, Ca2+ signal in transfected CHO cells
condition-notes: response to 0.3 nM endothelin-1
pIC50: −log10 of the molar value.

Worked cases, pIC50 given:
CCNS(=O)(=O)Nc1ncnc(OCCOc2ncc(Br)cn2)c1-c1ccc2scnc2c1 [WX002] = < 3.52
CCCOCCNS(=O)(=O)Nc1ncnc(OCCOc2ncc(Br)cn2)c1-c1ccc2scnc2c1 [WX006] = < 3.52

Ask: Query (molecule): CCCNS(=O)(=O)Nc1ncnc(OCCOc2ncc(Br)cn2)c1-c1ccc2c(c1)CCO2 [WX033] ; field requested: pIC50
Reply: < 4.52

Ask: Give its pIC50 value. Item: O=S(=O)(Nc1ncnc(OCCOc2ncc(Br)cn2)c1-c1ccc2c(c1)OCC2)N1CCC2(CC1)CC2 [WX028]
Reply: < 4.00

Ask: For O=S(=O)(NCC1CCOCC1)Nc1ncnc(OCCOc2ncc(Br)cn2)c1-c1ccc2c(c1)OCO2 [WX019] , what is its reported pIC50?
Reply: < 4.52

---

tgt: human ETA receptor (Homo sapiens, UniProt P25101)
Construct: endogenously expressed human ETA receptors in SK-N-MC cells; host or cells: SK-N-MC cells
Sequence (P25101 21-427): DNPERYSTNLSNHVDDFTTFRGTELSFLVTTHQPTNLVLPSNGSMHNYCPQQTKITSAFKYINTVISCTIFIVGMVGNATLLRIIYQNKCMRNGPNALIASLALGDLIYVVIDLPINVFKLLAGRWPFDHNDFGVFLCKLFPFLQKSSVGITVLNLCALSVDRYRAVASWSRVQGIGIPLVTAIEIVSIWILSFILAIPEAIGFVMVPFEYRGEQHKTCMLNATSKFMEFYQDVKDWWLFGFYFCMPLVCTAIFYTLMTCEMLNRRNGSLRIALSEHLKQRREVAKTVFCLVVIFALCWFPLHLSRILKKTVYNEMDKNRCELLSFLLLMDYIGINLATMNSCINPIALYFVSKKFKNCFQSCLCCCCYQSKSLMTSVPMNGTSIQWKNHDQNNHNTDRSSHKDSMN
test-description: In vitro antagonistic effect against human ETA receptor, Ca2+ signal in SK-N-MC cells
Format: cell-based
condition-notes: ratio of ETB IC50 to ETA IC50
Entries annotated with measured ETA/ETB selectivity

Some solved cases for reference:
CCCNS(=O)(=O)Nc1ncnc(OCCOc2ncc(Br)cn2)c1-c1ccc2c(c1)CCO2 = >18700
CCNS(=O)(=O)Nc1ncnc(OCCOc2ncc(Br)cn2)c1-c1ccc2scnc2c1 = >107000

Then this molecule:
Ask: Consider the molecule shown here: `CCOCCNS(=O)(=O)Nc1ncnc(OCCOc2ncc(Br)cn2)c1-c1ccc2c(c1)OCO2` What is its recorded ETA/ETB selectivity?
Reply: >348800
